Listing: % Editing, day 5 of selected molecules
# Test system: PCSK9 gene
# Assay explanation: PCSK9 gRNA/SpCas9 editing in primary human hepatocytes (Tables 2, 4)
# Assay type: cell-based
# Condition notes: modified gRNA, SpCas9 mRNA MS002 1:1 by weight; day 5 post transfection
In the oligonucleotide strings, read from the 5' end, every base follows the letter of its sugar. An asterisk marks phosphorothioate; unmarked linkages are phosphodiester. Other units and linkages are bracketed, terminal groups are in braces. A string of capitals states the bases alone. m = 2'-O-methyl; r = 2'-OH (RNA)

Field: example entries. Status: answers known.
>>> data_value("GA002: PCSK9 gRNA, GA156 spacer with modifications to the tracrRNA sequence (nucleic acid, listed as RNA; modified_base 1: mod_base = OTHER; note = 2'-O-Methyl-guanosine phosphorothioate; modified_base 2: mod_base = OTHER; modified_base 3: mod_base = OTHER; note = 2'-O-Methyl-uridine phosphorothioate) guide: GGTGCTAGCCTTGCGTTCCGGTTTTAGAGCTAGAAATAGCAAGTTAAAATAAGGCTAGTCCGTTATCAACTTGAAAAAGTGGCACCGAGTCGGTGCTTTT")
"23%"
>>> data_value("GA008: structure-guided 2′-OMe heavy guide RNA (gRNA) design, PCSK9 (nucleic acid) guide: mG*mG*mU*rGrCrUrArGrCrCrUrUrGrCrGrUrUrCrCrGmGrUrUrUrUrArGmAmGmCmUmAmGmAmAmAmUmAmGmCmAmArGrUrU*mArAmArAmUrAmAmGmGmCmUmArGrUmCmCrGrUrU*rAmUmCrArAmCmUmUmGmAmAmAmAmAmGmUmGrGmCmAmCmCmGmAmGmUmCmGmGmUmGmCmU*mU*mU*mU")
"28%"

// moving on: another record for % Editing, day 5
What value of measured % Editing, day 5 is listed for GA006: PCSK9 gRNA, GA156 spacer with modifications to the tracrRNA sequence (nucleic acid) guide: rG*rG*rU*rGrCrUrArGrCrCrUrUrGrCrGrUrUrCrCrGmGrUrUrUrUrArGmAmGmCmUmAmGmAmAmAmUmAmGmCmAmArGrUrUmArAmArAmUrAmAmGmGmCmUmArGrUmCmCrGrUrUrAmUmCrArAmCmUmUmGmAmAmAmAmAmGmUmGrGmCmAmCmCmGmAmGmUmCmGmGmUmGmCmU*mU*mU*mU ?
12%

The measured values listed here are drawn from patent US20250152746A1.
